The entries below are paired with their reported combination Emax.
system: JSC-1 (B-Cell Non-Hodgkin's Lymphoma); assay: combination Emax (second highest fraction inhibited in the dose matrix, 72 h); higher = more inhibition; extreme values may be limits of the assay

COc1nnc2ccc(N3CCC(c4ccc(OCCN5CCN(C)C(=O)[C@H]5C)cc4)CC3)nn12 [AZD5153] + Cn1cnc2c(F)c(Nc3ccc(Br)cc3Cl)c(C(=O)NOCCO)cc21 [Selumetinib] (first compound max 1 µM, 7x7, partner max 10 µM)
0.805

Let's switch to this compound now.
query: Please report the recorded combination Emax for Cc1cc2ncnn2cc1Nc1ncc2c(n1)n(C1CCOCC1)c(=O)n2C [AZD7648] + CN(C)CCCOc1ccc(-c2ccc3ncc4c(c3c2)n(C2CCOCC2)c(=O)n4C)cn1 [AZD0156] (first compound max 10 µM, 7x7, partner max 1 µM) .
result: 0.303
